Entries and their measured melting point follow.
measured-endpoint: melting point

- compound: "COc1ccccc1C1=NN(C(=O)c2cccnc2)CC1C (stereo not shown)"
  test-value: "124 to 125 °C"
- compound: "Cc1cccc(C2=NN(C(=O)c3cccnc3)CC2)c1"
  test-value: "99 to 100 °C"
- compound: "O=C(c1cccnc1)N1CCC(c2ccc([N+](=O)[O-])cc2)=N1"
  test-value: "175 to 177 °C"
- compound: "O=C(c1cccnc1)N1CCC(c2ccccc2[N+](=O)[O-])=N1"
  test-value: "123 to 125 °C"
